- Tested on: BT-474 cells
- MEASUREMENT_NOTES: Antiproliferative assay
- Format: cell-based
- SETTINGS: Homo sapiens, BT-474, 72 h, read-out: Antiproliferative activity IC50, BT-474; SD
READOUT_LABEL: IC50 (nM)

SMILES_STRUCTURE	READOUT_LABEL	RECORDED_NUMBER
CS(=O)(=O)CCNCc1ccc(-c2ccc3ncnc(Nc4ccc(OCc5cccc(F)c5)c(Cl)c4)c3c2)o1	IC50	25
